Test system: E. coli CDC-149 (NDM-7), PBP3 mutations
Test Method Notes: MIC, broth microdilution
Type: cell-based
Recorded Conditions: Escherichia coli
Quantity: MIC

Exercise: Field request: MIC | item: C[C@H]1[C@H](NC(=O)/C(=N\OC(C)(C)C(=O)O)c2csc(N)n2)C(=O)N1S(=O)(=O)O [ATM, aztreonam]
Key: 0.5 µg/mL

Exercise: // repeat for CC(C)(O/N=C(\C(=O)N[C@@H]1C(=O)N2C(C(=O)[O-])=C(C[N+]3(CCNC(=O)c4ccc(O)c(O)c4Cl)CCCC3)CS[C@H]12)c1csc(N)n1)C(=O)O [FDC, cefiderocol] and report
Key: 16 µg/mL

Exercise: // repeat for CO/N=C(\C(=O)N[C@@H]1C(=O)N2C(C(=O)[O-])=C(C[N+]3(C)CCCC3)CS[C@H]12)c1csc(N)n1 [FEP, cefepime] and report
Key: > 64 µg/mL

Exercise: // repeat for C[C@@H](O)[C@H]1C(=O)N2C(C(=O)O)=C(S[C@@H]3CN[C@H](C(=O)N(C)C)C3)[C@H](C)[C@H]12 [MEM, meropenem] and report
Key: 8 µg/mL

---

Target System: IMP-6 (Serratia marcescens, UniProt P52699, S214G)
Test Method Notes: Ki app determination (Waley's method)
Recorded Conditions: read-out: Ki app; IMP-6; means from three independent studies
Quantity: Ki

Exercise: Field request: Ki | item: NCCN[C@H]1CC[C@H](CC(=O)N[C@H]2Cc3cccc(C(=O)O)c3OB2O)CC1
Key: > 100 µM

---

Target System: VIM-1 (Pseudomonas aeruginosa)
Test Method Notes: Ki app determination (Waley's method)
Please go through the items and note down their Ki.

Exercise: Field request: Ki | item: N[C@@H](C(=O)N1CC(Oc2ccc3c(c2C(=O)O)OB(O)CC3)C1)c1c[nH]cn1
Key: 0.35 µM

Exercise: // repeat for O=C(NC1CCNCC1)[C@@H]1CC[C@@H]2CN1C(=O)N2OS(=O)(=O)O and report
Key: > 100 µM

Exercise: // repeat for NC(=O)[C@@H]1CC[C@@H]2CN1C(=O)N2OS(=O)(=O)O and report
Key: > 100 µM

Exercise: // repeat for C[C@]1(Cn2ccnn2)[C@H](C(=O)O)N2C(=O)C[C@H]2S1(=O)=O and report
Key: > 100 µM

Exercise: // repeat for O=C(O)C[C@@H]1CC[C@H](NC(=O)Cc2cccs2)B(O)O1 and report
Key: > 100 µM

---

Please go through the items and note down their pKi.
Target System: NDM-6 (Klebsiella pneumoniae, UniProt C7C422, A233V)
Test Method Notes: Ki app determination (Waley's method)
pKi: −log10 of the molar value.

Exercise: Field request: pKi | item: N[C@@H](C(=O)N1CC(Oc2ccc3c(c2C(=O)O)OB(O)CC3)C1)c1c[nH]cn1
Key: 5.98

Exercise: // repeat for O=C(O)C[C@@H]1CC[C@H](NC(=O)Cc2cccs2)B(O)O1 and report
Key: < 4.00

Exercise: // repeat for O=C(NC1CCNCC1)[C@@H]1CC[C@@H]2CN1C(=O)N2OS(=O)(=O)O and report
Key: < 4.00

Exercise: // repeat for NC(=O)[C@@H]1CC[C@@H]2CN1C(=O)N2OS(=O)(=O)O and report
Key: < 4.00

Exercise: // repeat for C[C@]1(Cn2ccnn2)[C@H](C(=O)O)N2C(=O)C[C@H]2S1(=O)=O and report
Key: < 4.00

---

Please go through the items and note down their MIC50.
Test system: MEM-nonsusceptible Enterobacterales with metallo-carbapenemases
Test Method Notes: MIC, broth microdilution
Format: cell-based
Recorded Conditions: MEM-nonsusceptible Enterobacterales with metallo-carbapenemases (55); cefiderocol 54 isolates; fixed concentration (μg/mL) in label; read-out: MIC50
Enter your answer as a number in µg/mL; do not include the unit.

Exercise: Value wanted: MIC50 (MEM-nonsusceptible Enterobacterales with metallo-carbapenemases) of entry C[C@@H](O)[C@H]1C(=O)N2C(C(=O)O)=C(S[C@@H]3CN[C@H](C(=O)N(C)C)C3)[C@H](C)[C@H]12
Key: 16

Exercise: // repeat for CC(C)(O/N=C(\C(=O)N[C@@H]1C(=O)N2C(C(=O)[O-])=C(C[N+]3(CCNC(=O)c4ccc(O)c(O)c4Cl)CCCC3)CS[C@H]12)c1csc(N)n1)C(=O)O and report
Key: 1

Exercise: // repeat for CN(C)c1cc(NC(=O)CNC(C)(C)C)c(O)c2c1C[C@H]1C[C@H]3[C@H](N(C)C)C(O)=C(C(N)=O)C(=O)[C@@]3(O)C(O)=C1C2=O and report
Key: 1

Exercise: // repeat for C[C@H]1COc2c(N3CCN(C)CC3)c(F)cc3c(=O)c(C(=O)O)cn1c23 and report
Key: 32

Exercise: // repeat for NCC[C@H](O)C(=O)N[C@@H]1C[C@H](N)[C@@H](O[C@H]2O[C@H](CN)[C@@H](O)[C@H](O)[C@H]2O)[C@H](O)[C@H]1O[C@H]1O[C@H](CO)[C@@H](O)[C@H](N)[C@H]1O and report
Key: 32

---

Tested on: 96 P. aeruginosa
Test Method Notes: MIC, broth microdilution
Type: cell-based, Pseudomonas aeruginosa
Recorded Conditions: Pseudomonas aeruginosa (96); fixed concentration (μg/mL) in label; read-out: MIC90
Please go through the items and note down their MIC90.
Enter your answer as a number in µg/mL; do not include the unit.

Exercise: Value wanted: MIC90 (96 P. aeruginosa) of entry CC(C)(O/N=C(\C(=O)N[C@@H]1C(=O)N2C(C(=O)[O-])=C(C[N+]3(CCNC(=O)c4ccc(O)c(O)c4Cl)CCCC3)CS[C@H]12)c1csc(N)n1)C(=O)O [FDC, cefiderocol]
Key: 2

Exercise: // repeat for O=C(O)c1cn(C2CC2)c2cc(N3CCNCC3)c(F)cc2c1=O [Ciprofloxacin] and report
Key: 64

Exercise: // repeat for C[C@H]1COc2c(N3CCN(C)CC3)c(F)cc3c(=O)c(C(=O)O)cn1c23 [Levofloxacin] and report
Key: 64

Exercise: // repeat for CN(C)c1cc(NC(=O)CNC(C)(C)C)c(O)c2c1C[C@H]1C[C@H]3[C@H](N(C)C)C(O)=C(C(N)=O)C(=O)[C@@]3(O)C(O)=C1C2=O [tigecycline] and report
Key: 16

---

Please go through the items and note down their Ki.
Target System: NDM-4 (Klebsiella pneumoniae, UniProt C7C422, M154L)
Test Method Notes: Ki app determination (Waley's method)

Exercise: Field request: Ki | item: O=C(NC1CCNCC1)[C@@H]1CC[C@@H]2CN1C(=O)N2OS(=O)(=O)O
Key: > 100 µM

Exercise: // repeat for C[C@]1(Cn2ccnn2)[C@H](C(=O)O)N2C(=O)C[C@H]2S1(=O)=O and report
Key: > 100 µM

Exercise: // repeat for N[C@@H](C(=O)N1CC(Oc2ccc3c(c2C(=O)O)OB(O)CC3)C1)c1c[nH]cn1 and report
Key: 0.153 µM

Exercise: // repeat for NC(=O)[C@@H]1CC[C@@H]2CN1C(=O)N2OS(=O)(=O)O and report
Key: > 100 µM

Exercise: // repeat for O=C(O)C[C@@H]1CC[C@H](NC(=O)Cc2cccs2)B(O)O1 and report
Key: > 100 µM

---

Target System: SHV-5 (Klebsiella pneumoniae, UniProt P0A3M1)
Test Method Notes: Ki app determination (Waley's method)
Recorded Conditions: read-out: Ki app; SHV-5; means from three independent studies
Quantity: pKi
On this scale, pKi is minus log10 of a concentration expressed in M (mol/L).

Exercise: Field request: pKi | item: NCCN[C@H]1CC[C@H](CC(=O)N[C@H]2Cc3cccc(C(=O)O)c3OB2O)CC1 [Tanibobactam, taniborbactam]
Key: 8.23

---

Target System: ACT-17 (Enterobacter cloacae complex, UniProt Q8KP20)
Test Method Notes: Ki app determination (Waley's method)
Recorded Conditions: read-out: Ki app, means from three independent studies
Quantity: Ki (µM)
Enter your answer as a number in µM; do not include the unit.

Exercise: Field request: Ki | item: NCCN[C@H]1CC[C@H](CC(=O)N[C@H]2Cc3cccc(C(=O)O)c3OB2O)CC1
Key: 0.0126

---

Test system: 55 isolates of A. baumannii
Test Method Notes: MIC, broth microdilution
Format: cell-based, Acinetobacter baumannii
Recorded Conditions: Acinetobacter baumannii (55); fixed concentration (μg/mL) in label; read-out: MIC50
Please go through the items and note down their log10(MIC50).
Values reflect log10 of reported MIC50 (µg/mL).

Exercise: Field request: log10(MIC50) | item: C[C@@H](O)[C@H]1C(=O)N2C(C(=O)O)=C(SCCN=CN)C[C@H]12 [Imipenem]
Key: 1.51

Exercise: // repeat for CN(C)c1cc(NC(=O)CNC(C)(C)C)c(O)c2c1C[C@H]1C[C@H]3[C@H](N(C)C)C(O)=C(C(N)=O)C(=O)[C@@]3(O)C(O)=C1C2=O [tigecycline] and report
Key: 0.00

Exercise: // repeat for C[C@H]1[C@H](NC(=O)/C(=N\OC(C)(C)C(=O)O)c2csc(N)n2)C(=O)N1S(=O)(=O)O [ATM, aztreonam] and report
Key: 1.81

Exercise: // repeat for CC(C)(O/N=C(\C(=O)N[C@@H]1C(=O)N2C(C(=O)[O-])=C(C[N+]3(CCNC(=O)c4ccc(O)c(O)c4Cl)CCCC3)CS[C@H]12)c1csc(N)n1)C(=O)O [FDC, cefiderocol] and report
Key: -0.30

Exercise: // repeat for NCC[C@H](O)C(=O)N[C@@H]1C[C@H](N)[C@@H](O[C@H]2O[C@H](CN)[C@@H](O)[C@H](O)[C@H]2O)[C@H](O)[C@H]1O[C@H]1O[C@H](CO)[C@@H](O)[C@H](N)[C@H]1O [Amikacin] and report
Key: 1.81

Exercise: // repeat for C[C@H]1COc2c(N3CCN(C)CC3)c(F)cc3c(=O)c(C(=O)O)cn1c23 [Levofloxacin] and report
Key: 1.20

These entries and their values trace back to paper PMC11620503.
